Data origin: PubChem BioAssay (NCI)

- Tested on: MALME-3M melanoma
- procedure_details: NCI-60 one-dose screen, 48 h (100 = growth as untreated, 0 = no growth, -100 = all killed)
- assay_conditions: 10 µM unless noted
The panel holds about 83,000 compounds, 20% with a hit somewhere; the sample as a whole holds those more often.
Threshold rule: growth greater than or equal to 60% is condition met; below that, condition not met.

Previously resolved entries follow.
compound: Cc1ccc(-c2nc(C(Cl)Cl)nc3cc(C)nn23)cc1
target_of_assay: MALME-3M melanoma
group_label: condition not met

compound: COC(=O)c1ccc2c(c1)c1c(C)c3ccncc3c(C)c1n2C
target_of_assay: MALME-3M melanoma
group_label: condition not met

compound: N#C/C(=C\c1ccc(Cl)cc1Cl)C(=O)Nc1ncc(Cc2ccc(Cl)c(Cl)c2)s1
target_of_assay: MALME-3M melanoma
group_label: condition met

Could you verify whether the entry C/C(=C(\c1ccc(OCCN2CCCCCC2)cc1)c1ccc(OC(=O)Cc2ccccc2)cc1)c1ccc(Cl)cc1 shows growth of no less than 60%?
condition not met

Could you verify whether the entry CC(=O)Nc1c(Cl)cc(Cl)c2c1Cc1cc([N+](=O)[O-])ccc1-2 shows growth of no less than 60%?
condition met

Could you verify whether the entry CCN(CC)c1ccc(/C=C\c2cc(C)c3cc(C)ccc3n2)cc1 shows growth of no less than 60%?
condition not met

Could you verify whether the entry NC(=O)OCCn1cc(-c2nc(-c3c[nH]c4ncccc34)cs2)c2ccccc21 shows growth of no less than 60%?
condition met

Could you verify whether the entry COc1cc2cc(NCc3ccc(OC(F)F)cc3)nc(C)c2cc1OC shows growth of no less than 60%?
condition met

Could you verify whether the entry C/C(C=O)=C\c1ccc2c(c1)OCO2 shows growth of no less than 60%?
condition met

Could you verify whether the entry O=C1OCC2=C1C(c1cccc(C(F)(F)F)c1)c1cc3c(cc1N2CCO)OCO3 (stereo unspecified) shows growth of no less than 60%?
condition met

Could you verify whether the entry CC1=CCC[C@@H]2C1(C)CC[C@H](C)[C@@]2(C)CC1=CC(=O)C(SC(C)(C)C)=CC1=O (stereo partly specified) shows growth of no less than 60%?
condition met

Could you verify whether the entry O=C1NC(=Nc2ccc(O)cc2)S/C1=C\c1cccs1 shows growth of no less than 60%?
condition met

Could you verify whether the entry CN1CCN(CCCOc2ccc3ncnc(Nc4ccc(Oc5cccc(F)c5)c(Cl)c4)c3c2)CC1 shows growth of no less than 60%?
condition not met

Could you verify whether the entry COc1ccc(NC(=O)c2sc3nc4c(cc3c2N)CCCC4)cc1 shows growth of no less than 60%?
condition not met

Could you verify whether the entry CN1C(=O)N(C)C2C1NC(=S)N2/N=C/C=C/c1ccccc1[N+](=O)[O-] (stereo unspecified) shows growth of no less than 60%?
condition not met
